Test Description: NCI Yeast Anticancer Drug Screen. Data for the sgs1 mgt1 strain (AID 161)
Measurement Parameters: S. cerevisiae sgs1 mgt1 strain, at 5.0 µM (retest, dose inferred, filed as 0.5), stronger effect = higher value
This is part of a sample that, as a whole, favours compounds with a hit. Of some 79,000 tested, about 15% had one in any assay.
Label YES when growth inhibition is at or above 10%; anything below gets NO.

{"Compound": "N#CCc1nc(Cl)cc(Cl)n1", "Cat": "NO"}
{"Compound": "CCCc1nc2ccccc2c(=O)n1/N=C/c1ccccc1O", "Cat": "NO"}
{"Compound": "COCCOC1=C(Cl)C(=O)c2c(O)ccc(O)c2C1=O", "Cat": "YES"}
{"Compound": "N#Cc1cn(-c2c3ccccc3nc3ccccc23)c(=O)[nH]c1=O", "Cat": "NO"}
{"Compound": "CC(C)C(O)C(C)C", "Cat": "NO"}
{"Compound": "CCOCCOC(=O)c1cc([N+](=O)[O-])cc([N+](=O)[O-])c1", "Cat": "NO"}
{"Compound": "CC1=NN(C(=O)c2ccncc2)C(=O)C1N=Nc1ccc(C)c([N+](=O)[O-])c1 (centres undefined)", "Cat": "YES"}
{"Compound": "O=C(CCCCN1CCN2c3ccccc3CCC2C1)c1ccccc1 (centres undefined)", "Cat": "YES"}
{"Compound": "OC(c1ccccc1)(c1ccccc1)C(F)(Cl)Cl", "Cat": "NO"}
{"Compound": "CCC(=O)c1cc2ccccc2c2ccccc12", "Cat": "NO"}
{"Compound": "O=C1c2ccccc2C2(O)c3cc4ccccc4cc3OC12O (centres undefined)", "Cat": "NO"}
{"Compound": "O=C(O)CCC/C(=N\\Nc1ccccc1)C(=O)O", "Cat": "NO"}
{"Compound": "CCc1ccc(CC(=O)O)c2ccc3c(C)ccc(C)c3c12", "Cat": "YES"}
{"Compound": "CC(O[Si](C)(C)C(C)(C)C)C(=O)Sc1ccccn1 (centres undefined)", "Cat": "NO"}
{"Compound": "CSc1c(S(C)=O)c2ccccc2n1C (centres undefined)", "Cat": "YES"}
{"Compound": "CCC(C)NC(=S)N/N=C(\\C)c1ccccn1 (centres undefined)", "Cat": "NO"}
{"Compound": "Cc1c(N)nc(C2CC(=O)N2CC(N)C(N)=O)nc1C(=O)NC(C(=O)NC(C)C(O)C(C)C(=O)NC(C(=O)NCCc1nc(-c2nc(C(=O)NCCNCC(C)O)cs2)cs1)C(C)O)C(OC1OC(CO)C(O)C(O)C1OC1OC(CO)C(O)C(OC(N)=O)C1O)c1cnc[nH]1 (centres undefined)", "Cat": "YES"}
{"Compound": "Nc1cc(Cl)c(I)cc1Cl", "Cat": "NO"}
{"Compound": "CC1=C(C)CC(C#N)(C#N)C(C#N)(C#N)C1", "Cat": "NO"}
{"Compound": "CSc1ncc2c(n1)-c1ccccc1OC2NC1CC1 (centres undefined)", "Cat": "YES"}
{"Compound": "CCO/C=C1\\C(=O)C=C(C)CC1c1ccc(OC)c(OC)c1OC (centres undefined)", "Cat": "NO"}
{"Compound": "CN(C)C(=S)NC(=S)Nc1ccc2ccccc2c1", "Cat": "YES"}
{"Compound": "O=C(c1ccc(Cl)c([N+](=O)[O-])c1)c1ccc(Cl)c([N+](=O)[O-])c1", "Cat": "YES"}
{"Compound": "C#CCOC(=O)Nc1nc2ccc(SC#N)cc2s1", "Cat": "NO"}
